test system: MDA-MB-468 breast; assay: NCI tumour cell line growth inhibition, 48 h; in the data active = GI50 below about 0.43 µM; inactive = the rest
Outcomes: Yes = active, No = inactive

{"test.smiles": "Cn1ccnc1C(=O)/C=C/c1ccc(CNC(=O)c2ccc(F)cc2)cc1", "label.class": "No"}
{"test.smiles": "Cn1nc(C(F)(F)F)cc1-c1cc(Cl)c(COc2ccc(Cl)cc2)c(-c2ccc(Cl)c(C(F)(F)F)c2)c1O", "label.class": "No"}
{"test.smiles": "NC(=O)c1ccc2c(-c3ccnc(NCCCO)n3)c(-c3ccc(F)cc3)nn2c1", "label.class": "No"}
{"test.smiles": "C=C[C@H]1CCC/C=C/[C@@H]2C[C@H](O)C[C@H]2[C@H](O)/C=C/C(=O)O1", "label.class": "Yes"}
{"test.smiles": "CCCN1CCN(c2ccc3nc(-c4ccc5nc(-c6cc(OC)ccc6OC)[nH]c5c4)[nH]c3c2)CC1", "label.class": "No"}
{"test.smiles": "COc1ccc(CNc2c3ccccc3nc3ccc(OC)cc23)cc1", "label.class": "No"}
{"test.smiles": "O=C(Nc1ccc(Cl)c([N+](=O)[O-])c1)Nc1ccc(Cl)c([N+](=O)[O-])c1", "label.class": "No"}
{"test.smiles": "Cc1ccc(NC2=C(Cl)C(=O)c3nc(C)ccc3C2=O)c(C)c1", "label.class": "No"}
{"test.smiles": "COc1ccc(-c2nc3ncccn3c2/C=C/C(=O)c2cc(OC)c(OC)c(OC)c2)cc1", "label.class": "No"}
